- study-target: T1, Human soluble IL6-R (human, UniProt P08887 20-358)
- T1 construct: Bought soluble receptor; biotinylated in some Alphascreen assays; also called sIL6-R; hIL-6R
- T1 sequence (looked up): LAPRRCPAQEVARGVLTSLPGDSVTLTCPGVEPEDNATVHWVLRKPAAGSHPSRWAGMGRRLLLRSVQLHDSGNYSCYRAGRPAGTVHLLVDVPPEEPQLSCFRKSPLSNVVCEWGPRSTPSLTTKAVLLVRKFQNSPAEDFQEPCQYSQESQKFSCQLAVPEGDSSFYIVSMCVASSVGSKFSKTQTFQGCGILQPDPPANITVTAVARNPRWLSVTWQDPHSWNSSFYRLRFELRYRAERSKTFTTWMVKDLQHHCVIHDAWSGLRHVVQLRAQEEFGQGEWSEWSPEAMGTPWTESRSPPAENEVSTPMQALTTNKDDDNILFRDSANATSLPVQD
- assay-protocol: SPR (Biacore 3000), IL6-R on CM5 chip
quantity: kon (M⁻¹ s⁻¹)

Use the examples below as a reference point.
-- ask What measured kon goes with IL6R06 (VHH, also called PMP32E2; PMP 32 E2) VHH: EVQLVESGGGLVQAGGSLRLSCAASGNIFDDNTMGWTWNRQPPGKQRELVAIIATDGSTNYADSVKGRFTISRDNAKNTVYLQMNSLKPEDTAVYYCNLFSLRLGRDYWGQGTQVTVSS ?
-- reply 1.07e+06

-- ask Would you mind doing IL6R14 (VHH, also called PMP40H5; PMP 40 H5) VHH: EVQLVESGGGLVQPGGSLRLSCAASGFSLDYYAIGWFRQAPGKEREGVSCMDSSSGTTSTYYSDSVKGRFTISRDDAKNTVYLQMNSLKPEDTAVYYCAADGHLNWGQRYVPCSQISWRGWNDYWGQGTQVTVSS as well?
-- reply 402000

-- ask What do you have for Reference Fab (Fab, V domains shown, Anti-human IL-6R Fab according to EP 0 628 639, made in E. coli periplasm; also called Tocilizumab-Fab) VH: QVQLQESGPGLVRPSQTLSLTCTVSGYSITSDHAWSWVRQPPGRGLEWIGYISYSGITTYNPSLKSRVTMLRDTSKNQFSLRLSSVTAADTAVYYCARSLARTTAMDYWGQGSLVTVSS VL: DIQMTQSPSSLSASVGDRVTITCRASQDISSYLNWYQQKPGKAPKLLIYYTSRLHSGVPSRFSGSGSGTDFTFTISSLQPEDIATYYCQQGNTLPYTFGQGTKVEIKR ?
-- reply 768000

P: IL6R04 (VHH, also called PMP32C9; PMP 32 C9) VHH: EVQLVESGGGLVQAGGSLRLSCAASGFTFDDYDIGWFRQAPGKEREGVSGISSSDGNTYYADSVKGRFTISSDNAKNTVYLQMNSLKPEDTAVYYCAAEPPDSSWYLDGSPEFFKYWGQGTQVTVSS
Q: IL6R12 (VHH, also called PMP35F4; PMP 35 F4) VHH: EVQLVESGGGLVQAGGSLRLSCAASGRTFSSYDMGWYRQAPGKEREFVAIITWNSSTYYADSVKGRFTISRDNAKNTVYLQMNSLKPEDTAIYYCNAQYGLGYAEDYWGQGTQVTVSS
-- ask Identify the entry with the smaller kon: P or Q . Please reply using the label of the selected record.
-- reply P
